System Under Test: α4β2 nAChR (Rattus norvegicus (Rat), UniProt P09483+P12390)
Sequence (P09483 31-630 limits assumed): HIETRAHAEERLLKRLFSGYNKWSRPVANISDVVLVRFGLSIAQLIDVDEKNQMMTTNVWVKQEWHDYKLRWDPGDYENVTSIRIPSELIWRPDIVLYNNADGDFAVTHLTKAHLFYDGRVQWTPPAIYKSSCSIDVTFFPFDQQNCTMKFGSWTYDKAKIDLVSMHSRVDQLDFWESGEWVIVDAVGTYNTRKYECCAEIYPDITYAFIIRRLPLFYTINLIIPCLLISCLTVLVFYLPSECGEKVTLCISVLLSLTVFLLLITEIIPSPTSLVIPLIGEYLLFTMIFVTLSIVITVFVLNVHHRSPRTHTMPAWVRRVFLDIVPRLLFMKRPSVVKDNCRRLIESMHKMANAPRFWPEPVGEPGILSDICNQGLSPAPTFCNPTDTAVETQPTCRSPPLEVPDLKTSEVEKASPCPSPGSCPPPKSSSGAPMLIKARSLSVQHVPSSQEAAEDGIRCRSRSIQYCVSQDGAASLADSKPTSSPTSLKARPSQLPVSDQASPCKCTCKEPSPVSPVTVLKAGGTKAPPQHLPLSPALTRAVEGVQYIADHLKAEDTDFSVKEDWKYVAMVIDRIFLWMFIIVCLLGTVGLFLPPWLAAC
Sequence (P12390 25-500 limits assumed): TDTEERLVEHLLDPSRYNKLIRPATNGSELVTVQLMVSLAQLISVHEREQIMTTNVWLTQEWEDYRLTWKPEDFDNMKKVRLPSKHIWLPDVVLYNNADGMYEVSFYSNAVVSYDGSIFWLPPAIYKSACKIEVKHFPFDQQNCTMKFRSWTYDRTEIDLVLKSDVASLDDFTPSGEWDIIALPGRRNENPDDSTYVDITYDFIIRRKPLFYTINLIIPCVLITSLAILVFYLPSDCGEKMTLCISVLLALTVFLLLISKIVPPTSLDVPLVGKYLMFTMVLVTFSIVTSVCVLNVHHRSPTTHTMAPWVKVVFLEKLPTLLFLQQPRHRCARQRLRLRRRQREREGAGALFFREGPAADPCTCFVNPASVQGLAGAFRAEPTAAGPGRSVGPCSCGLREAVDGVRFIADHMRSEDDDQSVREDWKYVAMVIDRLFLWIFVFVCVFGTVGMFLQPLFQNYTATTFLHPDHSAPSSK
Method Summary: biochemical
Type: binding
Condition Description: Table 3 (Example 4); read-out: Ki α4β2
Readout Name: Ki
For clarity, give the value followed by its unit.

Example entries begin here.
Exam item: Given the entry Cc1ncc(C#CCCCCCl)cc1OC[C@@H]1CCN1 [(S)-21] , what Ki was observed with α4β2 nAChR (Rattus norvegicus (Rat), UniProt P09483+P12390)?
Marked response: 4.7 nM

Exam item: Given the entry CCCCC#Cc1cnc(C)c(OC[C@@H]2CCN2)c1 [(S)-15] , what Ki was observed with α4β2 nAChR (Rattus norvegicus (Rat), UniProt P09483+P12390)?
Marked response: 12 nM

Exam item: Given the entry CCCCC#Cc1cnc(C)c(OC[C@H]2CCCN2)c1 [(R)-16] , what Ki was observed with α4β2 nAChR (Rattus norvegicus (Rat), UniProt P09483+P12390)?
Marked response: 9900 nM

***
Exam item: Given the entry CCCCC#Cc1cnc(C)c(OC[C@@H]2CCCN2)c1 [(S)-16] , what Ki was observed with α4β2 nAChR (Rattus norvegicus (Rat), UniProt P09483+P12390)?
Marked response: 73 nM

Exam item: Given the entry OCCCCC#Cc1cncc(OC[C@@H]2CCN2)c1 [Sazetidine-A, reference compound] , what Ki was observed with α4β2 nAChR (Rattus norvegicus (Rat), UniProt P09483+P12390)?
Marked response: 0.062 nM
